Test system: HIV
Assay: microbe, parasite or virus in culture
Assay type: cell-based
Conditions: Human immunodeficiency virus 1, MT4; HIV-infected MT-4 cells, MTT method, 4 or 5 days at 37° C.; read-out: ED50 (the source's name)
// reported log10(EC50) for each item listed
Use the decimal logarithm of EC50 (µg/mL).

Q: So what log10(EC50) did CCc1c(Oc2cc(C)cc(C)c2)n(CC2CCC2)c(=O)[nH]c1=O get with HIV?
Ans: -1.12

Q: So what log10(EC50) did CCc1c(C(=O)c2cc(C)cc(C)c2)n(Cc2cc(OC)cc(OC)c2)c(=O)[nH]c1=O get with HIV?
Ans: -0.51

Q: So what log10(EC50) did Cc1cc(C)cc(C(=O)c2c(C(C)C)c(=O)[nH]c(=O)n2CC2CC2)c1 get with HIV?
Ans: -2.66

Q: So what log10(EC50) did Cc1cc(C)cc(Oc2c(C(C)C)c(=O)[nH]c(=O)n2Cc2ccc3ccccc3n2)c1 get with HIV?
Ans: -2.40

Q: So what log10(EC50) did COC(=O)c1ccoc1Cn1c(C(=O)c2cc(C)cc(C)c2)c(C(C)C)c(=O)[nH]c1=O get with HIV?
Ans: -1.85

Q: So what log10(EC50) did CCc1c(C(=O)c2cc(C)cc(C)c2)n(Cc2ccc3c(c2)C(=O)c2ccccc2C3=O)c(=O)[nH]c1=O get with HIV?
Ans: -1.59

----------
// reported melting point for each item listed

// below: answered compounds
COc1cc(Cn2c(C(=O)c3cc(C)cc(C)c3)c(C(C)C)c(=O)[nH]c2=O)cc(OC)c1 ... 220 to 222 °C
CCc1c(Oc2cc(C)cc(C)c2)n(Cc2cccnc2)c(=O)[nH]c1=O ... 230 to 232 °C
Cc1cc(C)cc(C(=O)c2c(C(C)C)c(=O)[nH]c(=O)n2Cc2cc(C(F)(F)F)cc(C(F)(F)F)c2)c1 ... 178 to 180 °C
Cc1cc(C)cc(C(=O)c2c(C(C)C)c(=O)[nH]c(=O)n2Cc2cccc(C#N)c2)c1 ... 202 to 204 °C

Q: Param item = Cc1cc(C)cc(Sc2c(C(C)C)c(=O)[nH]c(=O)n2Cc2ccccc2C#N)c1 ; retrieve measured melting point.
Ans: 238 to 240 °C

Q: Param item = CCc1c(C(=O)c2cc(C)cc(C)c2)n(Cc2cccnc2)c(=O)[nH]c1=O ; retrieve measured melting point.
Ans: 170 to 172 °C

Q: Param item = CCc1c(Oc2cc(C)cc(C)c2)n(Cn2nnc3ccccc32)c(=O)[nH]c1=O ; retrieve measured melting point.
Ans: 248 to 249 °C

Q: Param item = CCc1c(Oc2cc(C)cc(C)c2)n(Cc2cccc(OC)c2)c(=O)[nH]c1=O ; retrieve measured melting point.
Ans: 133 to 135 °C

----------
Test system: mock-infected MT-4 cells
Test: Cytotoxicity based on viability of mock-infected host cells (MTT method)
Format: cell-based
Details: mock-infected MT-4 cells, MTT method, 4 or 5 days at 37° C.
observable: CD50 (µg/mL)
Write down the numeric answer in µg/mL and omit the unit.

// below: answered compounds
Cc1cc(C)cc(Oc2c(C(C)C)c(=O)[nH]c(=O)n2Cc2nc3ccccc3o2)c1 ... 9.00
CCc1c(C(=O)c2cc(C)cc(C)c2)n(Cc2ccccc2)c(=O)[nH]c1=O ... 8.00

Q: Param item = Cc1cc(C)cc(C(=O)c2c(C(C)C)c(=O)[nH]c(=O)n2Cc2cccnc2)c1 ; retrieve measured CD50.
Ans: 8.80

----------
// reported CD50 for each item listed
System: mock-infected MT-4 cells
Assay: Cytotoxicity based on viability of mock-infected host cells (MTT method)
Type: cell-based
Conditions: mock-infected MT-4 cells, MTT method, 4 or 5 days at 37° C.
Write down the numeric answer in µg/mL and omit the unit.

// below: answered molecules
Cc1cc(C)cc(C(=O)c2c(C(C)C)c(=O)[nH]c(=O)n2Cc2cc(F)ccc2F)c1 ... 5.26
Cc1cc(C)cc(Sc2c(C(C)C)c(=O)[nH]c(=O)n2CC2CCCCC2)c1 ... 6.40
Cc1cc(C)cc(Oc2c(C(C)C)c(=O)[nH]c(=O)n2CC2CCCCC2)c1 ... 8.30
CCc1c(C(=O)c2cc(C)cc(C)c2)n(Cc2cccc(OC)c2)c(=O)[nH]c1=O ... 7.22
Cc1cc(C)cc(C(=O)c2c(C(C)C)c(=O)[nH]c(=O)n2Cc2ccc3ccccc3n2)c1 ... 8.70
CCc1c(Oc2cc(C)cc(C)c2)n(Cc2ccccc2)c(=O)[nH]c1=O ... 16.58

Q: Param item = COc1cccc(Cn2c(Sc3cc(C)cc(C)c3)c(C(C)C)c(=O)[nH]c2=O)c1 ; retrieve measured CD50.
Ans: 9.53

Q: Param item = Cc1cc(C)cc(C(=O)c2c(C(C)C)c(=O)[nH]c(=O)n2CC2CCC2)c1 ; retrieve measured CD50.
Ans: 8.5

Q: Param item = CCc1c(C(=O)c2cc(C)cc(C)c2)n(Cc2ccccn2)c(=O)[nH]c1=O ; retrieve measured CD50.
Ans: 32.80

----------
// reported CD50 for each item listed
Test system: mock-infected MT-4 cells
Assay: Cytotoxicity based on viability of mock-infected host cells (MTT method)
Type: cell-based
Settings: mock-infected MT-4 cells, MTT method, 4 or 5 days at 37° C.
Write down the numeric answer in µg/mL and omit the unit.

Cc1cc(C)cc(Oc2c(C(C)C)c(=O)[nH]c(=O)n2Cc2ccc3c(c2)C(=O)c2ccccc2C3=O)c1 ... 9.49
CCc1c(C(=O)c2cc(C)cc(C)c2)n(Cc2cc(Cl)cc(Cl)c2)c(=O)[nH]c1=O ... 3.10
Cc1cc(C)cc(Oc2c(C(C)C)c(=O)[nH]c(=O)n2Cc2c3ccccc3cc3ccccc23)c1 ... 2.02
CCC(=O)Cn1c(Oc2cc(C)cc(C)c2)c(CC)c(=O)[nH]c1=O ... 48.0
Cc1cc(C)cc(Oc2c(C(C)C)c(=O)[nH]c(=O)n2Cc2cccc(Br)n2)c1 ... 48.27
CCc1c(C(=O)c2cc(C)cc(C)c2)n(Cc2occc2C(=O)OC)c(=O)[nH]c1=O ... 13.45

Consider now this further compound.
Q: Param item = CCc1c(C(=O)c2cc(C)cc(C)c2)n(Cc2nc3ccccc3o2)c(=O)[nH]c1=O ; retrieve measured CD50.
Ans: 6.78

----------
observable: melting point

// below: answered molecules
Cc1cc(C)cc(Oc2c(C(C)C)c(=O)[nH]c(=O)n2Cc2cc(Br)cc(Br)c2)c1 ... 244 to 246 °C
Cc1cc(C)cc(C(=O)c2c(C(C)C)c(=O)[nH]c(=O)n2CC2CC2)c1 ... 193 to 195 °C
Cc1cc(C)cc(Oc2c(C(C)C)c(=O)[nH]c(=O)n2Cc2ccccn2)c1 ... 220 to 223 °C

Q: Param item = CCc1c(C(=O)c2cc(C)cc(C)c2)n(Cc2cccc(Cl)n2)c(=O)[nH]c1=O ; retrieve measured melting point.
Ans: 196 to 198 °C

Q: Param item = Cc1cc(C)cc(Oc2c(C(C)C)c(=O)[nH]c(=O)n2CC2CC2)c1 ; retrieve measured melting point.
Ans: 146 to 148 °C

Q: Param item = CCc1c(Sc2cc(C)cc(C)c2)n(Cc2cc(Br)cc(Br)c2)c(=O)[nH]c1=O ; retrieve measured melting point.
Ans: 214 to 215 °C

Q: Param item = Cc1cc(C)cc(Cn2c(C(=O)c3cc(C)cc(C)c3)c(C(C)C)c(=O)[nH]c2=O)c1 ; retrieve measured melting point.
Ans: 228 to 230 °C

Q: Param item = COc1cccc(Cn2c(Oc3cc(C)cc(C)c3)c(C(C)C)c(=O)[nH]c2=O)c1 ; retrieve measured melting point.
Ans: 158 to 159 °C

----------
observable: melting point

// below: answered compounds
CCc1c(Sc2cc(C)cc(C)c2)n(Cc2c3ccccc3cc3ccccc23)c(=O)[nH]c1=O ... 219 to 220 °C
Cc1cc(C)cc(C(=O)c2c(C(C)C)c(=O)[nH]c(=O)n2Cc2cc(Cl)cc(Cl)c2)c1 ... 220 to 222 °C
CCc1c(C(=O)c2cc(C)cc(C)c2)n(Cc2cc(Cl)cc(Cl)c2)c(=O)[nH]c1=O ... 223 to 225 °C

Consider now this further compound.
Q: Param item = COc1cccc(Cn2c(Sc3cc(C)cc(C)c3)c(C(C)C)c(=O)[nH]c2=O)c1 ; retrieve measured melting point.
Ans: 135 to 137 °C

----------
System: mock-infected MT-4 cells
Assay: Cytotoxicity based on viability of mock-infected host cells (MTT method)
Type: cell-based
Settings: mock-infected MT-4 cells, MTT method, 4 or 5 days at 37° C.
// reported log10 of CD50 for each item listed
Use the decimal logarithm of CD50 (µg/mL).

Cc1cc(C)cc(Oc2c(C(C)C)c(=O)[nH]c(=O)n2Cc2ccccc2)c1 [Example 22] ... 1.41
Cc1cc(C)cc(Cn2c(C(=O)c3cc(C)cc(C)c3)c(C(C)C)c(=O)[nH]c2=O)c1 [Example 54] ... 0.85
CCc1c(C(=O)c2cc(C)cc(C)c2)n(Cc2ccccc2C#N)c(=O)[nH]c1=O [Example 41] ... 0.41
CCc1c(C(=O)c2cc(C)cc(C)c2)n(Cc2cc(C)cc(C)c2)c(=O)[nH]c1=O [Example 53] ... 0.40
CCC(=O)Cn1c(Oc2cc(C)cc(C)c2)c(C(C)C)c(=O)[nH]c1=O [Example 162] ... 1.62

Consider now this further compound.
Q: Param item = CCc1c(Sc2cc(C)cc(C)c2)n(Cc2cc(C)cc(C)c2)c(=O)[nH]c1=O [Example 49] ; retrieve measured log10 of CD50.
Ans: 0.87
